Here we list molecules with their recorded MIC when tested on hyper-permeable E. coli 901C.

// solved cases for MIC follow
COc1cc(C(=O)NC(C(=O)N[C@H]2Cc3cccc(C(=O)O)c3OB2O)c2csc(N)n2)ccn1 (stereo partly shown) [Example 41] ... < 64 µg/mL
Cc1cc(C)n2c1C=C1C=CC(CCC(=O)NCCON=C(C(=O)N[C@H]3Cc4cccc(C(=O)O)c4OB3O)c3csc(N)n3)=[N+]1[B-]2(F)F [Example 13] ... > 128 µg/mL
COc1ccc(C(=O)NC(C(=O)N[C@H]2Cc3cccc(C(=O)O)c3OB2O)c2csc(N)n2)c(=O)[nH]1 (stereo partly shown) [Example 46] ... < 64 µg/mL

IN: Any idea what MIC was measured for CCN1CCN(C(=O)NC(C(=O)N[C@H]2Cc3cc(OC)cc(C(=O)O)c3OB2O)c2csc(N)n2)C(=O)C1=O (stereo partly shown) [Example 38] ?
OUT: < 64 µg/mL

IN: Same question, CCN1CCN(C(=O)N[C@H](C(=O)N[C@H]2Cc3cccc(C(=O)O)c3OB2O)C(O)c2ccccc2)C(=O)C1=O (single isomer, unassigned) [Example 81] this time
OUT: > 128 µg/mL

IN: Same question, Nc1nc(C(NS(N)(=O)=O)C(=O)N[C@H]2Cc3cccc(C(=O)O)c3OB2O)cs1 (stereo partly shown) [Example 26] this time
OUT: < 64 µg/mL

* * *

# Tested on: E. coli DH5α/pLBII
# assay-text: Broth microdilution MIC assay, empty vector control strain
# Format: cell-based
# condition-summary: Escherichia coli, read-out: E. coli DH5α/pLBII Microbiological Activity (MIC)
# Description: To determine the ability of test compounds to potentiate the inhibition of the growth of bacterial strains, classic cell based broth microdilution MIC assays were employed. […] After the dilution plates are set up the growing cultures are then diluted in a cuvette containing MH II broth and the optical density is measured at 600 nm. […] The MIC is read visually as the lowest concentration well with no bacterial growth. […]
recorded-metric: MIC

IN: Any idea what MIC was measured for CCN1CCN(C(=O)N[C@@H](C)C(=O)N[C@H]2Cc3cccc(C(=O)O)c3OB2O)C(=O)C1=O [Example 31] ?
OUT: > 512 µg/mL

IN: Same question, CCN1CCN(C(=O)N[C@@H](C(=O)N[C@H]2Cc3cccc(C(=O)O)c3OB2O)C(C)C)C(=O)C1=O [Example 78] this time
OUT: 32 to 64 µg/mL

* * *

Here we list molecules with their recorded MIC when tested on hyper-permeable E. coli 901C.

Nc1nc(C(NC(=O)N2CCOCC2)C(=O)N[C@H]2Cc3cccc(C(=O)O)c3OB2O)cs1 (some centres unmarked) [Example 18] ... < 64 µg/mL
CCN1CCN(C(=O)N[C@@H](C)C(=O)N[C@H]2Cc3cccc(C(=O)O)c3OB2O)C(=O)C1=O [Example 31] ... > 128 µg/mL
CC(C)CN1CCN(C(=O)NC(C(=O)N[C@H]2Cc3cccc(C(=O)O)c3OB2O)c2csc(N)n2)C(=O)C1=O (some centres unmarked) [Example 66] ... < 64 µg/mL
CCCCCCN1CCN(C(=O)NC(C(=O)N[C@H]2Cc3cccc(C(=O)O)c3OB2O)c2csc(N)n2)C(=O)C1=O (some centres unmarked) [Example 93] ... < 64 µg/mL
Nc1nc(C(NC(=O)N2CCS(=O)(=O)CC2)C(=O)N[C@H]2Cc3cccc(C(=O)O)c3OB2O)cs1 (some centres unmarked) [Example 65] ... < 64 µg/mL

IN: Any idea what MIC was measured for CCN1CCN(C(=O)N[C@H](C)C(=O)N[C@H]2Cc3cccc(C(=O)O)c3OB2O)C(=O)C1=O [Example 34] ?
OUT: < 64 µg/mL

IN: Same question, Nc1nc(C(NC(=O)CCB(O)O)C(=O)N[C@H]2Cc3cccc(C(=O)O)c3OB2O)cs1 (some centres unmarked) [Example 89] this time
OUT: > 128 µg/mL

IN: Same question, CCC(O)[C@@H](NC(=O)N1CCN(CC)C(=O)C1=O)C(=O)N[C@H]1Cc2cccc(C(=O)O)c2OB1O (single isomer, unassigned) [Example 82] this time
OUT: < 64 µg/mL

IN: Same question, COc1ccc([C@H](N)C(=O)N[C@H]2Cc3cccc(C(=O)O)c3OB2O)cc1 [Example 5] this time
OUT: > 128 µg/mL

IN: Same question, CCN1CCN(C(=O)N[C@@H](C(=O)N[C@H]2Cc3cccc(C(=O)O)c3OB2O)C(O)c2ccccc2)C(=O)C1=O (single isomer, unassigned) [Example 80] this time
OUT: < 64 µg/mL
